B1: RHOBTB3 (parent)
chain: VSHVFMLLFNVKSPTDIQDSSIIR

Variants of: B1
Experiment: protein stability index of a GFP-peptide fusion (GPS, HEK-293T) (PSI 1-6); higher = more stable;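 further: lentivirally expressed fusions sorted by FACS into six bins by GFP to DsRed ratio, PSI derived from sequencing read proportions per bin multiplied by bin number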
Conditions: c terminus: a fixed tail appended
Give t when the value for protein stability index is at least 3. Give f when it is less.

Study these solved cases before continuing.
>  <residueSequence>
VSHVFMLPFNVKSPTDIQDSSIIR

>  <assignedClass>
f

$$$$
>  <residueSequence>
VSHVFMLLFNVKSPTDIQDSSPIR

>  <assignedClass>
t

$$$$
>  <residueSequence>
VSHVFMLLFNVNSPTDIQDSSIIR

>  <assignedClass>
f

$$$$
>  <residueSequence>
VSHVFMLLFNVKSPTDVQDSSIIR

>  <assignedClass>
f

$$$$

q: API: above_or_equal(metric=protein stability index, cutoff=3) for item VSHVFMLLFNVKSPTDIQDSSDIR
a: f

q: Hi team, for VSHVFMYLFNVKSPTDIQDSSIIR , is the recorded protein stability index at or above 3?
a: f

q: Record VSPVFMLLFNVKSPTDIQDSSIIR ; criterion: protein stability index no lower than 3. Met?
a: f

q: Has VYHVFMLLFNVKSPTDIQDSSIIR a recorded protein stability index greater than or equal to 3?
a: f

q: Quick check: does VSHVFMLLFNVHSPTDIQDSSIIR have protein stability index greater than or equal to 3?
a: f

q: Kindly determine if protein stability index recorded for VSHVFMLLFNVKSPTDIADSSIIR is above or exactly 3.
a: t
